biological target: Human Calpain 2/NS1 (Homo sapiens); assay: Biochemical inhibition of calpain 2, continuous fluorescence (FRET substrate) assay; conditions: mean, read-out: Human Calpain 2/NS1 IC50 (nM)_MEAN
Sequence (P17655 whole entry, one chain of several): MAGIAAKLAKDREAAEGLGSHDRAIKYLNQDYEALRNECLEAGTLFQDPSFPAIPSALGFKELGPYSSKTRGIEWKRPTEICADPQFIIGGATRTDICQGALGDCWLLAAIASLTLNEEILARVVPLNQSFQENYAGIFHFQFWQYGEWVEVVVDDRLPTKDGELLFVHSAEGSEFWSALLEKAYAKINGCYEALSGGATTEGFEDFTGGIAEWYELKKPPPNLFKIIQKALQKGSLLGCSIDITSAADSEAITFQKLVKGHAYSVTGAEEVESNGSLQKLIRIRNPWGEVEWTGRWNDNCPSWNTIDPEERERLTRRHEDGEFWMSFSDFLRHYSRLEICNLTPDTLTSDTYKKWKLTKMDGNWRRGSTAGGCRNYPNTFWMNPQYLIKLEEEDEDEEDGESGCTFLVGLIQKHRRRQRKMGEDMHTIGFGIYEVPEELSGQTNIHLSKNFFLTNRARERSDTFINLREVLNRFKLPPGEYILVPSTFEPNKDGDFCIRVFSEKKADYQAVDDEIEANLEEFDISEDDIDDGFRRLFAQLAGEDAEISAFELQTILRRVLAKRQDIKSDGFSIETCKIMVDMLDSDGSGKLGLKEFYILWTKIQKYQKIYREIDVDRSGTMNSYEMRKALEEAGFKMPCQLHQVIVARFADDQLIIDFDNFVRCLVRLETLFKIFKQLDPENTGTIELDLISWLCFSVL
Measured Parameter: IC50

- Compound: "O=C(NC1CCCC1)C(=O)C1CCCCOCCOCc2ccccc2C(=O)N1 (stereo not drawn)"
  IC50: "> 10000 nM"
- Compound: "O=C[C@@H]1CCCCOCCOc2ccccc2C(=O)N1"
  IC50: "3000 to 10000 nM"
- Compound: "O=C(NCc1ccccc1)C(=O)[C@@H]1C/C=C\\COCCOCc2ccccc2C(=O)N1"
  IC50: "> 10000 nM"
- Compound: "CCCCNC(=O)C(=O)[C@@H]1C/C=C/COCCOCc2ccccc2C(=O)N1"
  IC50: "> 10000 nM"
- Compound: "O=C[C@@H]1CCCCCCCCc2cccnc2C(=O)N1"
  IC50: "3000 to 10000 nM"
- Compound: "CCCNC(=O)C(=O)C1CCCCOCCOCc2ccccc2C(=O)N1 (stereo not drawn)"
  IC50: "> 10000 nM"

Field request: IC50 | item: `O=C[C@@H]1CCCCCOc2cccc(c2)-c2ccccc2C(=O)N1`
< 3000 nM

Using the record for O=C(NCCc1cccc(Cl)c1)C(=O)C1CCCCOCCOCc2ccccc2C(=O)N1 (stereo not drawn) , report its IC50.
> 10000 nM

Entry under review: C[C@@H](NC(=O)C(=O)C1CCCCOCCOCc2ccccc2C(=O)N1)c1cccnc1 (stereo partly drawn) . Reported IC50?
> 10000 nM

Name the reported IC50 value associated with the compound O=C(NCc1ccc(F)cc1)C(=O)C1CCCCOCCOCc2ccccc2C(=O)N1 (stereo not drawn)
< 3000 nM

IC50 lookup needed for `O=C[C@@H]1C/C=C/CCCCCCc2ccccc2C(=O)N1` , thanks.
< 3000 nM

Dear colleague, I am looking for the recorded IC50 of the following compound: `CC(C)NC(=O)C(=O)[C@@H]1CCCCOCCOCc2ccccc2C(=O)N1`
> 10000 nM

I would be grateful if you could share the reported IC50 for `O=C[C@@H]1CC=CCCCCCc2ccccc2C(=O)N1` .
< 3000 nM

Item under review: `CC(C)NC(=O)C(=O)[C@@H]1C/C=C/COCCOCc2ccccc2C(=O)N1` . Reported IC50?
> 10000 nM

I would be grateful if you could share the reported IC50 for `O=C(NC1CC1)C(=O)[C@@H]1Cc2ccc(cc2)OC/C=C/COc2cccc(c2)-c2ccn(n2)-c2ncccc2C(=O)N1` .
< 3000 nM

Look up IC50 for this compound: `O=C(NCCc1ccc(Cl)cc1)C(=O)[C@@H]1CCCCOCCOCc2ccccc2C(=O)N1`
< 3000 nM

Look up IC50: `O=C[C@@H]1CCCCCCCOc2ccccc2C(=O)N1`
< 3000 nM

Query (compound): `O=C[C@@H]1CCCCCOc2ccnc(c2)-c2ccccc2C(=O)N1` ; field requested: IC50
< 3000 nM

* * *

# maps each entry to its IC50
Target: Human Calpain 9/NS1 (Homo sapiens, UniProt O14815)
Sequence (O14815 1-690): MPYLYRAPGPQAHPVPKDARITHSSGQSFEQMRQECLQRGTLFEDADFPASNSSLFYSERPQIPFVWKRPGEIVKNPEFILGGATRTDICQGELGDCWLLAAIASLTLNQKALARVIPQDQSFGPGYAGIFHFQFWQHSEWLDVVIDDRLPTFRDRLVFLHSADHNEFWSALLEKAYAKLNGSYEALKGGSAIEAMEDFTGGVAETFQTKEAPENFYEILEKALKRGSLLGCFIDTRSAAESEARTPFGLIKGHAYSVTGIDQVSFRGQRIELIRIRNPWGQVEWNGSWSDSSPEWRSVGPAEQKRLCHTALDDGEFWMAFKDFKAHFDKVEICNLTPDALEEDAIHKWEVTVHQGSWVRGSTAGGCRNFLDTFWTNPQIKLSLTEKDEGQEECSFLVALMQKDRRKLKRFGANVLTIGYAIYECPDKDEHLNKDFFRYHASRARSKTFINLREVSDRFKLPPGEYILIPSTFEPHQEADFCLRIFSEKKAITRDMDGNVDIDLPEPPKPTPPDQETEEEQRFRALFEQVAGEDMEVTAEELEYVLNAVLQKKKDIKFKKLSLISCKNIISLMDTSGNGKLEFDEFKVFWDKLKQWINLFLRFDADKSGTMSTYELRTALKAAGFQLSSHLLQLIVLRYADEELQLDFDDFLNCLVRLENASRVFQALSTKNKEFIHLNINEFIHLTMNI
Sequence (P04632 1-268 partner): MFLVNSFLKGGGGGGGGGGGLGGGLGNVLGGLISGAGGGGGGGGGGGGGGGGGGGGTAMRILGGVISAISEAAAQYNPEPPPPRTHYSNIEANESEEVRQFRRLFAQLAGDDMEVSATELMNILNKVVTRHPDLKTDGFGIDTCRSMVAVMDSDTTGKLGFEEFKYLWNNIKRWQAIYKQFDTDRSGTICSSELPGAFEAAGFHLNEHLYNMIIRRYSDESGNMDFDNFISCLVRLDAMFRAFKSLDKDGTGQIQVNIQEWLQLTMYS
Experiment: Biochemical inhibition of calpain 9, continuous fluorescence (FRET substrate) assay
Settings: mean, read-out: Human Calpain 9/NS1 IC50 (nM)_MEAN

Consider the reported IC50 for these compounds:
- Compound: "O=C[C@@H]1CCCCCCCCc2cccnc2C(=O)N1"
  IC50: "< 3000 nM"
- Compound: "CCCCNC(=O)C(=O)[C@@H]1CCCCOCCOCc2ccccc2C(=O)N1"
  IC50: "< 3000 nM"
- Compound: "CON(C)C(=O)[C@@H]1C/C=C/CCOc2ccnc(n2)-c2ccccc2C(=O)N1"
  IC50: "> 10000 nM"

IC50 for O=C(NC1CC1)C(=O)C1CCCCOCCOCc2ccccc2C(=O)N1 (stereo not drawn) ?
> 10000 nM

IC50 for `CCNC(=O)C(=O)[C@@H]1CCCCCCCCc2ccccc2C(=O)N1` ?
> 10000 nM

Name the reported IC50 value associated with the compound O=C(NCc1cccc(F)c1)C(=O)C1CCCCOCCOCc2ccccc2C(=O)N1 (stereo not drawn)
< 3000 nM

# lookup: IC50 of O=C(NCc1ccccc1Cl)C(=O)C1CCCCOCCOCc2ccccc2C(=O)N1 (stereo not drawn)
< 3000 nM

What does the record list as IC50 for O=C(NCc1ccc2c(c1)OCO2)C(=O)C1CCCCOCCOCc2ccccc2C(=O)N1 (stereo not drawn) ?
< 3000 nM

Sample `NC(=O)C(=O)[C@@H]1CCCCCOc2ccc(F)c(c2)-c2ccccc2C(=O)N1` — what was its IC50?
< 3000 nM

Entry `O=C[C@@H]1Cc2ccccc2CCCOCCCn2cncc2C(=O)N1` has what IC50?
> 10000 nM

Which measured IC50 value corresponds to `O=C[C@@H]1Cc2ccc(cc2)CCCCc2ccc3nn(cc3c2)-c2ncccc2C(=O)N1` ?
< 3000 nM

Any idea what its IC50 is? The compound is `O=C[C@@H]1CCCCCCOc2ccnc(n2)-c2ccccc2C(=O)N1`
< 3000 nM

Origin of values: patent US11292801B2
